# METHOD_DESCRIPTION: BSK_MyoF_SRB: Viability Assessment in the BioMAP Diversity Plus: MyoF Assay (AID 2284267);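 also: total protein by SRB absorbance in parallel cultures as cytotoxicity measure; cells assessed 24 h after compound addition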
# TEST_SETTINGS: primary human lung fibroblasts
Active and inactive are the calls of the source. The calls were made as follows: active = hit-call score of the fitted dose curve at least 0.9, where 1 is the maximum; inactive = score below 0.9.
Respond only with the outcome that fits, drawn from active, inactive

| SMILES_CODE | CLASS_LABEL |
| --- | --- |
| CC(C)(C)c1ccc(O)c(O)c1 | active |

Problem: Which outcome was assigned to "C=COC(=O)C(C)(C)CCCCCC" in this test?
Solution: active

Problem: Which outcome was assigned to "CN(C)c1ccc(C(=C2C=CC(=[N+](C)C)C=C2)c2ccccc2)cc1" in this test?
Solution: active

Problem: Which outcome was assigned to "O=C(NO)c1ccccc1" in this test?
Solution: inactive

Problem: Which outcome was assigned to "CC[N+](CC)(CC)Cc1ccccc1" in this test?
Solution: inactive

---

# METHOD_DESCRIPTION: BSK_hDFCGF_SRB: Viability Assessment in the BioMAP Diversity Plus: hDFCGF Assay (AID 2283061);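 also: cells exposed to compound for 24 h before the read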
# TEST_SETTINGS: primary human foreskin fibroblasts
# Protocol: BSK_hDFCGF is a cell-based, multiplexed-readout assay that uses foreskin fibroblast, a human skin primary cell, with measurements taken at 24 hours after chemical dosing in a 96-well plate.BSK_hDFCGF_SRB is an assay component measured in the BSK_hDFCGF assay. It measures 0.1% sulforhodamine related to cell death using Sulforhodamine staining technology.Data from the assay component BSK_hDFCGF_SRB was analyzed into 1 assay endpoint. […]
The source made the active and inactive calls. How the source made its calls: active means hit-call score of the fitted dose curve at least 0.9, where 1 is the maximum; inactive means score below 0.9.
Respond only with the outcome that fits, drawn from active, inactive

| MOLECULE | CLASS_LABEL |
| --- | --- |
| CS(=O)(=O)c1ccc([C@@H](CC2CCCC2)C(=O)Nc2cnccn2)cc1Cl | inactive |
| O=C(O)CCC(F)(F)C(F)(F)C(F)(F)C(F)(F)C(F)(F)F | inactive |
| CCCCc1oc2ccccc2c1C(=O)c1cc(I)c(OCCN(CC)CC)c(I)c1 | active |
| O=C(c1ccccc1)c1ccccc1 | inactive |
| CCCCCCCCCCCCCCCCCC[N+](C)(C)Cc1ccccc1 | active |
| O=P(O)(O)CCC(F)(F)C(F)(F)C(F)(F)C(F)(F)C(F)(F)C(F)(F)F | inactive |

Problem: Which outcome was assigned to "CCOC(=O)CN[C@@H](C(=O)N1CC[C@H]1C(=O)NCc1ccc(/C(N)=N/O)cc1)C1CCCCC1" in this test?
Solution: inactive

Problem: Which outcome was assigned to "COC1=CC(=O)C[C@@H](C)[C@]12Oc1c(Cl)c(OC)cc(OC)c1C2=O" in this test?
Solution: inactive

Problem: Which outcome was assigned to "Clc1ccc(Nc2nnc(Cc3ccncc3)c3ccccc23)cc1" in this test?
Solution: inactive

Problem: Which outcome was assigned to C=CC(C)(CCC=C(C)C)OC(C)=O (stereo unspecified) in this test?
Solution: active

Problem: Which outcome was assigned to "Cc1ccc(C(=O)c2ccccc2)cc1" in this test?
Solution: inactive

---

# Read-out: CD40, CD40 (gene 958)
# METHOD_DESCRIPTION: BSK_SAg_CD40: BioMAP Diversity Plus: SAg Assay for CD40 Biomarker Activity (AID 2283088)
# TEST_SETTINGS: primary human HUVEC with PBMC; actives raise or lower the signal
The source made the active and inactive calls. Rule for the calls: active = hit-call score of the fitted dose curve at least 0.9, where 1 is the maximum; inactive = score below 0.9.
Respond only with the outcome that fits, drawn from TRUE = active, FALSE = inactive

Worked examples, 3 molecules total:
| MOLECULE | CLASS_LABEL |
| --- | --- |
| Cc1ccc(C(=O)c2ccccc2)cc1 | FALSE |
| OCC(CO)(CBr)CBr | FALSE |
| N=C(N)c1ccc(OCCCCCOc2ccc(C(=N)N)cc2)cc1 | FALSE |

Next item in the queue.
Problem: Which outcome was assigned to "CN(Cc1cnc2nc(N)nc(N)c2n1)c1ccc(C(=O)N[C@@H](CCC(=O)O)C(=O)O)cc1" in this test?
Solution: FALSE

---

# METHOD_DESCRIPTION: CCTE_Shafer_MEA_acute_cross_correlation_area: CCTE's Neural Acute Assay for Area of Cross Correlation, Shafer Lab (AID 2284024);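 also: area under pooled inter-electrode spike cross-correlation near zero lag as percent change from own baseline; curves fitted for loss of cross-correlation area so actives lower synchrony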;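 as to outcome: rat primary cortical neuron networks on 48-well MEA at DIV 13 or 15 with 40 min exposure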
Activity calls are given as the source filed them. How the source made its calls: active means hit-call score of the fitted dose curve at least 0.9, where 1 is the maximum; inactive means score below 0.9.
Respond only with the outcome that fits, drawn from active, inactive

Worked examples, 5 compounds total:
| SMILES_CODE | CLASS_LABEL |
| --- | --- |
| O=C1NS(=O)(=O)c2ccccc21 | active |
| CCCCCCCCCCCC | inactive |
| OCC(CO)(CBr)CBr | inactive |
| O=C(CCCN1CCC(O)(c2ccc(Cl)cc2)CC1)c1ccc(F)cc1 | inactive |
| CCCCc1oc2ccccc2c1C(=O)c1cc(I)c(OCCN(CC)CC)c(I)c1 | inactive |

Next item in the queue.
Problem: Which outcome was assigned to "Oc1ccc(Cc2ccccc2O)cc1" in this test?
Solution: active

---

# METHOD_DESCRIPTION: CCTE_Padilla_ZF_Score.Living: CCTE's 144 Hour Post-fertilization zebrafish Assay Score for Viability, Padilla Lab (AID 2284410);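 also: larval death at 6 dpf judged by absent heartbeat or coagulation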
Activity calls are given as the source filed them. How the source made its calls: active means hit-call score of the fitted dose curve at least 0.9, where 1 is the maximum; inactive means score below 0.9.
Respond only with the outcome that fits, drawn from true (1) = active, false (0) = inactive

| COMPOUND | CLASS_LABEL |
| --- | --- |
| O=C(O)CCC(F)(F)C(F)(F)C(F)(F)C(F)(F)C(F)(F)C(F)(F)F | true (1) |

Problem: Which outcome was assigned to "O=C(F)C(F)(F)C(F)(F)C(F)(F)C(=O)F" in this test?
Solution: false (0)

Problem: Which outcome was assigned to "O=C(CC(=O)C(F)(F)C(F)(F)C(F)(F)F)c1cccs1" in this test?
Solution: true (1)

Problem: Which outcome was assigned to FC(F)(F)C1(F)C(F)(F)C(F)(F)C(F)(F)C(F)(C(F)(F)F)C1(F)F (configuration not stated) in this test?
Solution: false (0)

---

# Read-out: Early growth response protein 1 (EGR1) transcription factor, EGR1 (gene 1958)
# METHOD_DESCRIPTION: LTEA_HepaRG_EGR1: Life Technologies and Expression Analysis (LTEA) Assay for Early growth response protein 1 (EGR1) transcription factor using HepaRG (AID 2283490)
# TEST_SETTINGS: mRNA level, 48 h; actives raise or lower the signal
# Description: LTEA_HepaRG is a cell based, multiplexed-readout assay that uses HepaRG, a human liver cell line, with measurements taken at 48 hours after chemical dosing on a 96-well plate.LTEA_HepaRG_EGR1 is one of 102 assay component(s) measured in the LTEA HepaRG cell culture assay. It is a marker of Cell proliferation, survival, death.Data from the assay component LTEA_HepaRG_EGR1 was analyzed into 1 endpoint. […]
Calls of active or inactive are those of the source. The calls were made as follows: active = hit-call score of the fitted dose curve at least 0.9, where 1 is the maximum; inactive = score below 0.9.
Respond only with the outcome that fits, drawn from class 1 (active), class 0 (inactive)

Worked examples, 3 compounds total:
| COMPOUND | CLASS_LABEL |
| --- | --- |
| OCC(CO)(CBr)CBr | class 0 |
| CN(C)CCOC(c1ccccc1)c1ccccc1 | class 0 |
| O=C(CCCN1CCC(O)(c2ccc(Cl)cc2)CC1)c1ccc(F)cc1 | class 1 |

Problem: Which outcome was assigned to "CC(=O)Nc1ccc(O)cc1" in this test?
Solution: class 0

Problem: Which outcome was assigned to "CS(=O)(=O)c1ccc([C@@H](CC2CCCC2)C(=O)Nc2cnccn2)cc1Cl" in this test?
Solution: class 1

Problem: Which outcome was assigned to CCC(C)c1ccccc1O (stereo unspecified) in this test?
Solution: class 0

---

# TGT: Aryl hydrocarbon receptor (Homo sapiens)
# METHOD_DESCRIPTION: ATG_Ahr_CIS: Attagene CIS-FACTORIAL HepG2 Assay for human Aryl Hydrocarbon Receptor (Ahr) (AID 2282930)
# TEST_SETTINGS: HepG2 AhR cis-factorial reporter transcription; actives raise or lower the signal
The source made the active and inactive calls. The calls were made as follows: active = hit-call score of the fitted dose curve at least 0.9, where 1 is the maximum; inactive = score below 0.9.
Respond only with the outcome that fits, drawn from active, inactive

Worked examples, 5 compounds total:
| COMPOUND | TGT | CLASS_LABEL |
| --- | --- | --- |
| Oc1ccc(Cc2ccccc2O)cc1 | Aryl hydrocarbon receptor (Homo sapiens) | inactive |
| O=S(=O)(O)c1ccccc1 | Aryl hydrocarbon receptor (Homo sapiens) | inactive |
| COC(=O)CC(C(C)=O)C(=O)OC (configuration not stated) | Aryl hydrocarbon receptor (Homo sapiens) | inactive |
| C[N+](C)(CCCNS(=O)(=O)CCC(F)(F)C(F)(F)C(F)(F)C(F)(F)C(F)(F)C(F)(F)F)CC(=O)[O-] | Aryl hydrocarbon receptor (Homo sapiens) | active |
| CN(CCO)S(=O)(=O)C(F)(F)C(F)(F)C(F)(F)C(F)(F)C(F)(F)C(F)(F)C(F)(F)C(F)(F)F | Aryl hydrocarbon receptor (Homo sapiens) | inactive |

Next item in the queue.
Problem: Which outcome was assigned to "CC1=CC(=O)c2ccccc2C1=O" in this test?
Solution: active
